System: HT-29
procedure.details: Cytotoxicity against human HT-29 cells after 48 hrs by MTT assay
Type: functional, cell-based
measurement.conditions: HT-29, 48 h
test.readout: IC50 (µM)
Please reply with the bare figure in µM and do not write the unit itself.

CCCCC(C)C1CC(O)CCC[C@H](O)C[C@@H](O)C[C@@H](O)CCCC(O)CCCC(O)CCCC(O)CCC[C@@H](O)C[C@@H](O)CCC/C(C)=C/C(=O)O1 (some centres not stated) [CAYLOBOLIDE B] :: 4.5

Then there is this molecule:
Query: Consider the molecule shown here: `CC[C@H](C)[C@@H]([C@@H](CC(=O)N1CCC[C@H]1[C@H](OC)[C@@H](C)C(=O)N[C@@H](Cc1ccccc1)c1nccs1)OC)N(C)C(=O)[C@@H](NC(=O)[C@H]([C@@H](C)CC)N(C)C)C(C)C` What is its recorded IC50?
Reply: 0.0015
